// reported LC50 per item
# System: brine shrimp (Artemia salina Leach)
# test-summary: Brine shrimp lethality test (BST)
# Format: in vivo
# experimental-context: Artemia salina, Table 17; same run; read-out: BST LC50
Report only the number, with the unit µg/mL understood.

Known LC50 results, listed for orientation:
INSERT INTO results (compound, observed_property, test_value) VALUES
  ('CCCCCC[C@H](O)CCC[C@H](O)[C@H]1CC[C@H]([C@H]2CC[C@H]([C@H](O)CCCCCCCCCCCCC3=C[C@H](C)OC3=O)O2)O1 [Compound 16, Squamocin, reference compound]', 'LC50', 0.02),
  ('CCCCCC[C@H]1CCC[C@@H](C2CCC(C3CCC(C(O)CCCCCCCCCCCCC4=CC(C)OC4=O)O3)O2)OCO1 (stereo partly shown) [Compound 17]', 'LC50', 0.0044),
  ('CCCCCCCCCC[C@@H](O)[C@H]1CC[C@H]([C@H](O)CC[C@H](O)[C@@H]2CC[C@@H](CCCCCCC[C@@H](O)CC3=C[C@H](C)OC3=O)O2)O1 [Compound 20, Bullatanocin, reference compound]', 'LC50', 0.43);

Checklist item: LC50 tested on brine shrimp (Artemia salina Leach), entry CCCCCCCCCC[C@@H](O)[C@H]1CC[C@H]([C@H](O)CC[C@H](O)[C@@H]2CC[C@@H](CCCCCCC[C@@H]3CC(CC(C)=O)C(=O)O3)O2)O1 (stereo partly drawn) [Compound 24, (2,4-Cis and trans)bullatanocinones, reference compound] , value? 0.28

Lookup CCCCCCCCCC[C@@H](O)[C@H]1CC[C@H]([C@H]2CC[C@@H]([C@@H]3CC[C@@H](CCCCCCC[C@@H]4CC(CC(C)=O)C(=O)O4)O3)OCO2)O1 (stereo partly shown) [Compound 25] 0.015

Request: CCCCCCCCCC[C@H](O)[C@H]1CC[C@H]([C@H]2CC[C@@H]([C@@H]3CC[C@@H](CCCCCCC[C@@H]4CC(CC(C)=O)C(=O)O4)O3)OCO2)O1 (stereo partly shown) [Compound 27] 0.038

Another compound to check: CCCCCCCCCC[C@H](O)[C@H]1CC[C@H]([C@H](O)CC[C@H](O)[C@@H]2CC[C@@H](CCCCCCC[C@@H](O)CC3=C[C@H](C)OC3=O)O2)O1 [Compound 18, Bullatalicin, reference compound] 1.2

And for CCCCCCCCCC[C@H](O)[C@H]1CC[C@H]([C@H](O)CC[C@H](O)[C@@H]2CC[C@@H](CCCCCCC[C@@H]3CC(CC(C)=O)C(=O)O3)O2)O1 (stereo partly drawn) [Compound 26, (2,4-Cis and trans)-bullatalicinones, reference compound] ? 0.47

Again, but for COc1cccc2c1C(=O)c1c(O)c3c(c(O)c1C2=O)C[C@@](O)(C(=O)CO)C[C@@H]3O[C@H]1C[C@H](N)[C@H](O)[C@H](C)O1 [Adriamycin, adriamycin, reference compound] 0.08

Then CCCCCC[C@H](O)CCC[C@H](O)[C@H]1CC[C@H]([C@H]2CC[C@@H]([C@@H]3CC[C@@H](CCCCCCCCCC4=C[C@H](C)OC4=O)O3)OCO2)O1 [Compound 15] ? 0.007

What do we get for CCCCCC[C@H]1CCC[C@@H]([C@H]2CC[C@H]([C@H]3CC[C@@H]([C@@H]4CC[C@@H](CCCCCCCCCC5=C[C@H](C)OC5=O)O4)OCO3)O2)OCO1 [Compound 14] ? 10.2

Try CCCCCCCCCC[C@@H](O)[C@H]1CC[C@H]([C@H]2CC[C@@H]([C@@H]3CC[C@@H](CCCCCCC[C@@H](O)CC4=C[C@H](C)OC4=O)O3)OCO2)O1 [Compound 21] next. 0.0065

What about CCCCCC[C@H](O)CCC[C@H](O)[C@H]1CC[C@H]([C@H](O)CC[C@H](O)[C@@H]2CC[C@@H](CCCCCCCCCC3=C[C@H](C)OC3=O)O2)O1 [Compound 13, Squamostatin A, reference compound] ? 2.8

* * *

# Test system: A-549 (human lung carcinoma)
# test-summary: Seven-day in vitro cytotoxicity, A-549
# Type: cell-based
# experimental-context: A549, 168 h, Table 17, seven day cytotoxicity, same run, read-out: A-549 ED50
# Description: The brine shrimp (Artemia salina Leach) test (BST) was performed as modified to determine LC50 values in μg/ml. […] Bioassay. The extracts, fractions, and isolates were routinely evaluated for lethality to brine shrimp larvae (BST). Cytotoxicities against human solid tumor cells were measured at the Purdue Cell Culture Laboratory, Purdue Cancer Center, for the A-549 lung carcinoma, MCF-7 breast carcinoma, and HT-29 colon adenocarcinoma. […]
observed-property: IC50 (ng/mL)
Give the number; ng/mL is assumed, so skip it.

Completed entries (count: 2):
INSERT INTO assay_data (compound, test_value) VALUES
  ('CCCCCCCCCCCCCC[C@@H](O)[C@H](O)CC[C@H](O)[C@@H]1CC[C@@H](CCCCC[C@@H](O)CC2=C[C@H](C)OC2=O)O1 [Compound 10, Gigantetrocin A, reference compound]', '4.52e-05'),
  ('CCCCCCCCCC[C@@H](O)[C@H]1CC[C@H]([C@H]2CC[C@@H]([C@@H]3CC[C@@H](CCCCCCC[C@@H]4CC(CC(C)=O)C(=O)O4)O3)OCO2)O1 (stereo partly drawn) [Compound 25]', 0.0677);

Turning to the following compound.
May I ask what IC50 has been recorded for CCCCCCCCCCCCCC[C@H]1OCO[C@@H]1CC[C@H](O)[C@@H]1CC[C@@H](CCCCC[C@@H](O)CC2=C[C@H](C)OC2=O)O1 [Compound 12, 17,18-formaldehyde acetal derivative] ? 69.5

* * *

# System: A-549 (human lung carcinoma)
# test-summary: Seven-day in vitro cytotoxicity, A-549
# Type: cell-based
# experimental-context: A549, 168 h, Table 17, seven day cytotoxicity, same run, read-out: A-549 ED50
observed-property: IC50
Mention the unit after the number when you answer.

Some solved entries appear below for comparison.
INSERT INTO results (compound, observed_property, test_value) VALUES
  ('CCCCCC[C@H]1CCC[C@@H]([C@H]2CC[C@H]([C@H]3CC[C@@H]([C@@H]4CC[C@@H](CCCCCCCCCC5=C[C@H](C)OC5=O)O4)OCO3)O2)OCO1', 'IC50', '1.78 µg/mL'),
  ('CCCCCCCCCCCCCC[C@@H](O)[C@H]1CC[C@H]([C@H]2CC[C@@H](CCCCC[C@@H](O)CC3=C[C@H](C)OC3=O)OCO2)O1', 'IC50', '1.05 µg/mL');

Which IC50 reading was recorded for the compound CCCCCCCCCCCCCC[C@@H](O)[C@H]1CC[C@H]([C@H](O)CC[C@H](O)CCCCC[C@@H](O)CC2=C[C@H](C)OC2=O)O1 [Compound 8, Goniothalamicin, reference compound] ? 7.11e-06 µg/mL

* * *

# LC50 per record follows
# System: brine shrimp (Artemia salina Leach)
# test-summary: Brine shrimp lethality test (BST)
# Assay type: in vivo
# experimental-context: Artemia salina, Table 5; brine shrimp larvae; read-out: BST LC50
Report the value in ng/mL with no unit label.

Worked examples, 4 compounds total:
INSERT INTO results (compound, measurement_target, test_value) VALUES
  ('CCCCCCCCCCC(O)C1CCC(C2CCC(C(O)CCCCC(O)CCCCCCCC3=CC(C)OC3=O)O2)O1 (centres unmarked) [Compound 1, Bullatin]', 'brine shrimp (Artemia salina Leach)', 4),
  ('CCCCCC(O)CCCCC(O)C1CCC(C2CCC(C(O)CCCCCCCCCCCCC3=CC(C)OC3=O)O2)O1 (centres unmarked) [Compound 5, Asiminecin]', 'brine shrimp (Artemia salina Leach)', 4.9),
  ('COc1cccc2c1C(=O)c1c(O)c3c(c(O)c1C2=O)C[C@@](O)(C(=O)CO)C[C@@H]3O[C@H]1C[C@H](N)[C@H](O)[C@H](C)O1 [Adriamycin, adriamycin, reference compound]', 'brine shrimp (Artemia salina Leach)', 257),
  ('CCCCCCC(O)CCCC(O)C1CCC(C2CCC(C(O)CCCCCCCCCCCCC3=CC(C)OC3=O)O2)O1 (centres unmarked) [Compound 4, Asiminacin]', 'brine shrimp (Artemia salina Leach)', 5.7);

Now examine the next entry.
Quick one: LC50 for CCCCC(O)CCCCCC(O)C1CCC(C2CCC(C(O)CCCCCCCCCCCCC3=CC(C)OC3=O)O2)O1 (centres unmarked) [Compound 2] ? 6

* * *

# Test system: brine shrimp (Artemia salina Leach)
# test-summary: Brine shrimp lethality test (BST)
# Format: in vivo
# experimental-context: Artemia salina, Table 17; same run; read-out: BST LC50
observed-property: LC50
Write the numeric value and follow it with the unit.

Illustrative cases are given below, each with its answer.
INSERT INTO measurements (compound, measurement_target, observed_property, test_value) VALUES
  ('CCCCCCCCCC[C@H](O)[C@H]1CC[C@H]([C@H]2CC[C@@H]([C@@H]3CC[C@@H](CCCCCCC[C@@H](O)CC4=C[C@H](C)OC4=O)O3)OCO2)O1 [Compound 19]', 'brine shrimp (Artemia salina Leach)', 'LC50', '0.049 µg/mL'),
  ('CCCCCCCCCCCCCC[C@@H](O)[C@H]1CC[C@H]([C@H](O)CC[C@H](O)CCCCC[C@@H](O)CC2=C[C@H](C)OC2=O)O1 [Compound 8, Goniothalamicin, reference compound]', 'brine shrimp (Artemia salina Leach)', 'LC50', '37 µg/mL'),
  ('CCCCCCCCCCCCCC[C@H]1OCO[C@@H]1CC[C@H](O)[C@@H]1CC[C@@H](CCCCC[C@@H](O)CC2=C[C@H](C)OC2=O)O1 [Compound 12, 17,18-formaldehyde acetal derivative]', 'brine shrimp (Artemia salina Leach)', 'LC50', '0.0075 µg/mL'),
  ('CCCCCCCCCCCCCC[C@@H](O)[C@H]1CC[C@H]([C@H]2CC[C@@H](CCCCC[C@@H](O)CC3=C[C@H](C)OC3=O)OCO2)O1 [Compound 9]', 'brine shrimp (Artemia salina Leach)', 'LC50', '0.0538 µg/mL');

Here is another compound to look at.
Recorded LC50 for CCCCCCCCCCCCCC[C@@H](O)[C@H](O)CC[C@H](O)[C@@H]1CC[C@@H](CCCCC[C@@H](O)CC2=C[C@H](C)OC2=O)O1 [Compound 10, Gigantetrocin A, reference compound] , please? 0.6 µg/mL
